measurement-description: binders of probe aFGF2 on microarray, primary screen, stem cell growth factor project, biochemical, small-molecule microarray, fluorescence 635/667 (AID 1067);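 also: measures binding of biotinylated aFGF2 protein to printed compounds on slides; z-score merges feature fluorescence and signal-to-noise across triplicate slides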
condition-context: higher = more signal
Listed next: entries and their corresponding composite z-score.
measurement-label: composite z-score

INSERT INTO results (smiles_notation, measurement_label, readout_value) VALUES
  ('C=CCOC(=O)[C@H]1[C@@H]2C(=O)O[C@@H](c3ccccc3)[C@@H](c3ccccc3)N2[C@@H](c2ccc(OCCOC(=O)[C@@H]3C[C@@H]4C(=O)N[C@@H](CCCCNC(C)=O)C(=O)N4[C@@H]3c3ccc(O)cc3)cc2)[C@]12C(=O)Nc1ccccc12', 'composite z-score', -0.0512),
  ('COCCOC(=O)N1C(=O)[C@@]2(c3cc(C#Cc4ccc(OC)cc4)ccc31)[C@H](c1ccccc1OCCO)N1[C@H](c3ccccc3)[C@H](c3ccccc3)OC(=O)[C@H]1[C@@H]2C(=O)NC[C@H](O)c1ccccc1', 'composite z-score', -0.0744),
  ('COC(=O)C(CC#Cc1ccc2c(c1)[C@]1(C(=O)N2)[C@H](C(=O)Nc2nc3ccccc3s2)[C@H]2C(=O)O[C@H](c3ccccc3)[C@H](c3ccccc3)N2[C@@H]1c1ccccc1OCCO)C(=O)OC', 'composite z-score', 0.0941),
  ('CO[C@H]1O[C@H](CO)[C@@H](OC(=O)Nc2ccc(C(F)(F)F)cc2)[C@H](OC(=O)Nc2ccc3c(c2)OCO3)[C@@H]1OC(=O)Nc1ccc2c(c1)OCO2', 'composite z-score', 0.0666),
  ('NC(=O)[C@@H]1[C@H]2C(=O)O[C@H](c3ccccc3)[C@H](c3ccccc3)N2[C@H](c2ccc(O)cc2)[C@@]12C(=O)Nc1ccccc12', 'composite z-score', -0.179),
  ('C[N+](C)(C)CCCCNC(=O)[C@@H]1C[C@@H]2C(=O)N[C@@H](Cc3ccccc3)C(=O)N2[C@@H]1c1cccc(OCCO)c1', 'composite z-score', -0.147);

====

measurement-description: basal S. cerevisiae growth modulation, no modifier, primary screen, OD600, strain BY4716, 24 h, basal condition (AID 1173)
condition-context: OD600, 24 h, higher = more signal, called active from +8 up or from −8 down
Kind request: treat -0.6 as inclusive, so z-score at -0.6 or higher is Fulfilled, anything lower is Not fulfilled.

INSERT INTO results (molecule, label_class) VALUES
  ('COC(=O)C[C@H]1O[C@]2(C(=O)N(C)c3ccccc32)[C@@H](C)[C@@H]1[Si](C)(C)F', 'Not fulfilled'),
  ('COc1cc(COC(C)=O)ccc1OC(C)=O', 'Not fulfilled'),
  ('CC(C)(C)OC(=O)CC[C@]1(C(=O)N2CCOCC2)N=C(c2ccc(OCCCO)cc2)O[C@H]1c1ccccc1N=[N+]=[N-]', 'Fulfilled'),
  ('CN(C)CCCCCCNC(=O)[C@@H]1C[C@@H]2C(=O)N[C@@H](Cc3ccccc3)C(=O)N2[C@@H]1c1ccc(O)cc1', 'Fulfilled'),
  ('CC1(C)[C@@H]2CC(C(O)C3C=CC4C(=O)N(c5ccccc5)C(=O)C4N3Nc3ccc([N+](=O)[O-])cc3)=C[C@H]1C2 (stereo partly specified)', 'Fulfilled'),
  ('CC(C)NC(=O)[C@@H]1c2ccccc2C(=O)N(C2Cc3ccccc3C2)[C@H]1c1ccc(CO)cc1', 'Fulfilled'),
  ('COC(=O)[C@@]1(Cc2ccc(OC)cc2)[C@H]2c3cc(C(=O)N(C)C)n(Cc4ccccn4)c3C[C@H]2CN1C(=O)c1ccccc1', 'Fulfilled'),
  ('CO[C@H]1O[C@H](CO)[C@@H](OC(=O)Nc2ccccc2)[C@H](OC(=O)Nc2ccccc2)[C@@H]1OC(=O)Nc1ccccc1', 'Fulfilled'),
  ('C=CC[C@@]12N=C(c3ccc(OCCCO)cc3)O[C@@H]1c1ccccc1N(C)C2=O', 'Not fulfilled'),
  ('CN1C(=O)C2C=CC(C(O)C3CC=CCC3)N(N(c3ccccc3)c3ccccc3)C2C1=O (stereo unspecified)', 'Fulfilled'),
  ('CC(=O)n1cc(C(O)C2C=CC3C(=O)N(c4ccccc4)C(=O)C3N2Nc2ccc([N+](=O)[O-])cc2)c2ccccc21 (stereo unspecified)', 'Fulfilled'),
  ('C=C(CCCC)/C(=C/C[C@H](OC(=O)c1ccncc1)c1ccccc1OCCO)c1cnc2ccccc2c1', 'Fulfilled'),
  ('CCOC(=O)C1=CC[C@@H](c2ccccc2)N(S(=O)(=O)c2ccc(C)cc2)[C@H]1c1ccccc1C', 'Fulfilled'),
  ('[N-]=[N+]=Nc1ccccc1[C@@H]1OC(c2ccc(OCCCO)cc2)=N[C@]1(Cc1ccccc1)C(=O)N1CCOCC1', 'Fulfilled'),
  ('O=C1C2C=CC(C(O)CCc3ccccc3)N(Nc3ccccc3F)C2C(=O)N1c1ccccc1 (stereo unspecified)', 'Fulfilled');

The measurements presented in this section are drawn from PubChem BioAssay.
